Molecular target: T1, APC5383-AA
T1 chain: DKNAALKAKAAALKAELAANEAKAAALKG
Assay: two-hybrid library CCmax;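 note: natural log of median RNA to DNA barcode read ratio; higher means stronger binding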
Conditions: mean of both orientations
endpointName: interaction score

binder	endpointName	measuredValue
DENAALEAELAAIEAKLAAIKAKLAAIKG [APC4011-AA]	interaction score	-1.52
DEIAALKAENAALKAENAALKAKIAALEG [4H733-AA]	interaction score	-2.26
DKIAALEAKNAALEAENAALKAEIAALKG [4H2458-AA]	interaction score	-1.7
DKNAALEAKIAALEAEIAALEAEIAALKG [4H3330-AA]	interaction score	-1.16
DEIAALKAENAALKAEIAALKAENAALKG [4H716-AA]	interaction score	-1.79

P. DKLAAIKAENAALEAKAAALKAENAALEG [APC1434-AA]
Q. DENAALEAEAAALEAELAAEEAENAALEG [APC4264-AA]
## Task Smaller interaction score value, P vs Q ? When you have decided, please share the label of that item.
## Result P
(P: -1.97, Q: -1.3)

These measurements were taken from paper PMC10397247.
